System: SK-MEL-2 melanoma
assay_details: NCI tumour cell line growth inhibition, 48 h
parameter_measured: TGI (µM)
Report the figure in µM without appending any unit label.

Record excerpt, results attached:
smiles	unit_descriptor	TGI
Cc1c(-c2ccccc2)n(C)c2cn[nH]c(=O)c12	µM	48
Cc1ccc(NC2=C(Cl)C(=O)c3nc(C)ccc3C2=O)cc1	µM	3.79
CCCCc1ccc(Nc2nc(Cl)c3[nH]cnc3n2)cc1	µM	31

Ask: Which value of TGI has been reported for C[C@]12CC[C@@H]3c4ccc(O)cc4CC[C@H]3[C@@H]1CC[C@@H]2NS(=O)(=O)c1cccc(Br)c1 in the records?
Result: 12
